Origin of the recorded values: patent US11865110B2

- protocol: Mouse pharmacokinetics
- Format: in vivo
- assay.context: plasma, male CD-1 mice, IV single dose 1 mg/kg, C0 by extrapolation
value.type: C0 (ng/mL)
Give just the numeric value; ng/mL need not be written.

Solved cases below.
CCC(C)(C)C(=O)n1nc(-c2cccn(CCC(=O)O)c2=O)cc1NCc1ccc(Cl)s1 [Compound 11]
7400
O=C(O)CCn1cccc(-c2cc(NCc3ccc(Cl)s3)[nH]n2)c1=O [Compound 2]
6300
CC(C)(C)C(=O)n1nc(-c2cccn(CCC(=O)O)c2=O)cc1NCc1ccc(Cl)s1 [Compound 1]
6800

Record O=C(O)Cn1cccc(-c2cc(NCc3ccc(Cl)s3)[nH]n2)c1=O [Compound 3] , field C0: 7200

CC(C)(C)C(=O)n1nc(-c2cccn(CC(=O)O)c2=O)cc1NCc1ccc(Cl)s1 [Compound 4] yielded C0 of 9500

Lookup result for O=C(O)CCn1cccc(-c2cc(NCc3ccc(Cl)s3)n(C(=O)c3ccoc3)n2)c1=O [Compound 12] ; measured C0: 4200

The reported value for CC(C)(C)C(=O)n1nc(-c2cccn(CCC(N)=O)c2=O)cc1NCc1ccc(Cl)s1 [Compound 8] in terms of C0 is 1700

====

- protocol: Mouse plasma stability
- Assay type: in vitro ADME, mouse (CD-1)
- assay.context: CD-1 mouse plasma, 37° C., time points to 160 min; read-out: Mouse Plasma Stability t1/2
value.type: half-life at 20 µM

Some entries whose results are on file:
CCC(C)(C)C(=O)n1nc(-c2cccn(CCC(=O)O)c2=O)cc1NCc1ccc(Cl)s1
≥ 300 min
CC(C)(CO)C(=O)n1nc(-c2cccn(CCC(=O)O)c2=O)cc1NCc1ccc(Cl)s1
70 min
CC(C)(C)C(=O)n1nc(-c2cccn(CC(=O)O)c2=O)cc1NCc1ccc(Cl)s1
≥ 300 min

Lab note: "COCCn1cccc(-c2cc(NCc3ccc(Cl)s3)n(C(=O)C(C)(C)C)n2)c1=O" gave half-life at 20 µM of ≥ 300 min

====

- tested.system: thrombin (Homo sapiens)
- protocol: Human Thrombin Generation Assay (TGA)
- assay.context: concentration that reduces endogenous thrombin potential AUC by 50%; human plasma; read-out: ETP EC50
Listing: EC50 of selected compounds
The answer is to be given in nM; state only the numeric part.

# count of solved cases: 5
CC(C)(N)Cn1cccc(-c2cc(NCc3ccc(Cl)s3)n(C(=O)c3ccoc3)n2)c1=O
430
[2H]C([2H])(Nc1cc(-c2cccn(CCC(=O)O)c2=O)nn1C(=O)C(C)(C)C)c1ccc(Cl)s1
2400
CC(C)[C@H](NC(=O)OC(C)(C)C)C(=O)OCOC(=O)CCn1cccc(-c2cc(NCc3ccc(Cl)s3)n(C(=O)C(C)(C)C)n2)c1=O
4800
CCC(C)(C)C(=O)n1nc(-c2cccn(CCC(=O)O)c2=O)cc1NCc1ccc(Cl)s1
960
[2H]C([2H])(C(=O)O)C([2H])([2H])n1cccc(-c2cc(NCc3ccc(Cl)s3)n(C(=O)C(C)(C)C)n2)c1=O
1900

In plain terms, "Cc1nc(C)c(COC(=O)CCn2cccc(-c3cc(NCc4ccc(Cl)s4)n(C(=O)C(C)(C)C)n3)c2=O)nc1C" has a documented EC50 of 2400

Data point: "CC(=O)OCCOC(=O)CCn1cccc(-c2cc(NCc3ccc(Cl)s3)n(C(=O)C(C)(C)C)n2)c1=O" ; EC50 = 1200

Sample "CC(C)(C)C(=O)n1nc(-c2cccn(CCCC(=O)O)c2=O)cc1NCc1ccc(Cl)s1" ; EC50 observed: 1400

====

In this section we review reported Cmax values for a set of compounds.
- protocol: Rat pharmacokinetics
- Type: in vivo
- assay.context: Sprague-Dawley, plasma, SD rats, PO 5 mg/kg, Formulation B (20% Labrasol, 80% phosphate buffer pH 6.8)
Form entry: enter the amount, then its unit.

Examples with their reported Cmax follow.
CC(C)(C)C(=O)n1nc(-c2cccn(CCC(N)=O)c2=O)cc1NCc1ccc(Cl)s1 [Compound 8]
230 ng/mL
CCC(C)(C)C(=O)n1nc(-c2cccn(CCC(=O)O)c2=O)cc1NCc1ccc(Cl)s1 [Compound 11]
1200 ng/mL

CC(C)(N)Cn1cccc(-c2cc(NCc3ccc(Cl)s3)n(C(=O)c3ccoc3)n2)c1=O [Compound 9] yielded Cmax of 5.8 ng/mL

Entry CC(C)(C)C(=O)n1nc(-c2cccn(CCCC(=O)O)c2=O)cc1NCc1ccc(Cl)s1 [Compound 5] , Cmax reported as 930 ng/mL

For record O=C(O)CCn1cccc(-c2cc(NCc3ccc(Cl)s3)[nH]n2)c1=O [Compound 2] the listed Cmax is 150 ng/mL

====

We begin with a simple list: items and their reported Cmax.
- protocol: Mouse pharmacokinetics
- Assay type: in vivo
- assay.context: plasma, male CD-1 mice, PO single dose 5 mg/kg
Kindly answer with a numeric value in ng/mL, unit omitted.

Example entries begin here.
O=C(O)CCn1cccc(-c2cc(NCc3ccc(Cl)s3)[nH]n2)c1=O
700
CC(C)(C)C(=O)n1nc(-c2cccn(CCC(=O)O)c2=O)cc1NCc1ccc(Cl)s1
3600

Switching to the query record.
Measured Cmax, "CC(C)(C)C(=O)n1nc(-c2cccn(CC(=O)O)c2=O)cc1NCc1ccc(Cl)s1" : 1500

====

List of microsomal CLint at 1 µM values.
- protocol: Mouse liver microsome stability
- Assay type: in vitro ADME, mouse (CD-1)
- assay.context: pH 7.4; CD-1 mouse liver microsomes 0.5 mg/mL, NADPH, 37° C.; lower measurable bound 5

Solved entries (count: 6):
O=C(O)CCn1cccc(-c2cc(NCc3ccc(Cl)s3)[nH]n2)c1=O
≤ 5 µL/min/mg
CC(C)(C)C(=O)n1nc(-c2cccn(CCC(=O)O)c2=O)cc1NCc1ccc(Cl)s1
5 to 11 µL/min/mg
CC(C)(C)C(=O)n1nc(-c2cccn(CCCC(=O)O)c2=O)cc1NCc1ccc(Cl)s1
29 µL/min/mg
CC(C)(C)C(=O)n1nc(-c2cccn(CC(=O)O)c2=O)cc1NCc1ccc(Cl)s1
≤ 5 µL/min/mg
O=C(O)Cn1cccc(-c2cc(NCc3ccc(Cl)s3)[nH]n2)c1=O
≤ 5 µL/min/mg
O=C(O)CCn1cccc(-c2cc(NCc3ccc(Cl)s3)n(C(=O)c3ccoc3)n2)c1=O
≤ 5 µL/min/mg

Value of measured microsomal CLint at 1 µM for the entry "CCC(C)(C)C(=O)n1nc(-c2cccn(CCC(=O)O)c2=O)cc1NCc1ccc(Cl)s1" : 31 µL/min/mg

# microsomal CLint at 1 µM (compound: "CC(C)(N)Cn1cccc(-c2cc(NCc3ccc(Cl)s3)n(C(=O)c3ccoc3)n2)c1=O" ) is 11 µL/min/mg

====

- protocol: Mouse plasma stability
- Assay type: in vitro ADME, mouse (CD-1)
- assay.context: CD-1 mouse plasma, 37° C., time points to 160 min; read-out: Mouse Plasma Stability t1/2
value.type: half-life at 20 µM

O=C(O)Cn1cccc(-c2cc(NCc3ccc(Cl)s3)[nH]n2)c1=O
≥ 5 h
CC(C)(C)C(=O)n1nc(-c2cccn(CCC(=O)O)c2=O)cc1NCc1ccc(Cl)s1
≥ 3 h

For record "O=C(O)CCn1cccc(-c2cc(NCc3ccc(Cl)s3)[nH]n2)c1=O" the listed half-life at 20 µM is ≥ 5 h

====

- tested.system: thrombin (Homo sapiens)
- protocol: Human Thrombin Generation Assay (TGA)
- assay.context: concentration that reduces endogenous thrombin potential AUC by 50%; human plasma; read-out: ETP EC50
pEC50: −log10 of the molar value.
Below is a list of entries, each paired with its recorded pEC50 value.

O=C(O)CCn1cccc(-c2cc(NCc3ccc(Cl)s3)[nH]n2)c1=O [Compound 2]
< 4.00
COCCn1cccc(-c2cc(NCc3ccc(Cl)s3)n(C(=O)C(C)(C)C)n2)c1=O [Compound 7]
6.01 to 6.07
O=C(O)Cn1cccc(-c2cc(NCc3ccc(Cl)s3)[nH]n2)c1=O [Compound 3]
< 4.00

Notebook: CC(C)(C)C(=O)n1nc(-c2cccn(CC(=O)O)c2=O)cc1NCc1ccc(Cl)s1 [Compound 4] , pEC50 read as 5.21 to 5.55

Per the records, this compound ( CC(C)(CO)C(=O)n1nc(-c2cccn(CCC(=O)O)c2=O)cc1NCc1ccc(Cl)s1 [Compound 10] ) has pEC50 equal to 5.00 to 5.77

response.value for CC(C)(C)C(=O)n1nc(-c2cccn(CCC(=O)O)c2=O)cc1NCc1ccc(Cl)s1 [Compound 1] (field: pEC50) = 5.77 to 6.03

Please fill in: pEC50 reported for O=C(O)CCn1cccc(-c2cc(NCc3ccc(Cl)s3)n(C(=O)c3ccoc3)n2)c1=O [Compound 12] = 5.68 to 5.85
